# System: UO-31 renal
# METHOD_NOTES: NCI-60 one-dose screen, 48 h
# REPORTED_CONDITIONS: 10 µM unless noted
This is part of a sample that, as a whole, favours compounds with a hit. Of some 83,000 tested, about 20% had one in any assay. Calls of active or inactive are those of the source. How the source made its calls: active means growth percent below 10; inactive means the rest.
Permitted responses: T (active), F (inactive)

Examples from the recorded data:
COMPOUND | CLASS_NAME
CCOC(=O)c1[nH]c2cc(Cl)ccc2c1[C@@H](C(=O)NC(C)(C)C)N(CC)C(=O)CCCCC#Cc1cccc2c1CN(C1CCC(=O)NC1=O)C2=O (stereo partly drawn) | T
CCCCc1ccc(NC(=O)C(F)(F)F)cc1 | F
CCCCOC(=O)C1OC(Oc2ccc3c(C)cc(=O)oc3c2)[C@@H](OC(C)=O)C(OC(C)=O)C1OC(C)=O (stereo partly drawn) | F
COc1ccc(-c2csc3c2-n2cccc2C3=O)cc1O | F
O=C1Nc2ccc(Cl)cc2/C1=N/N=C(c1ccccc1)c1ccccc1 | F
COc1cc(C(F)(F)F)ccc1-c1cc(-c2ccc(F)cc2)n[nH]1 | F

Identify the outcome logged in this assay for the compound shown: `C=CCCCCCCCCC(=O)[O-].C=CCCCCCCCCC(=O)[O-].[Zn+2]`
F

###

# Test system: MCF7 breast
# METHOD_NOTES: NCI-60 one-dose screen, 48 h
# REPORTED_CONDITIONS: 10 µM unless noted
This is part of a sample that, as a whole, favours compounds with a hit. Of some 83,000 tested, about 20% had one in any assay. Active and inactive are the calls of the source. The calls were made as follows: active = growth percent below 10; inactive = the rest.
Permitted responses: active, inactive

Identify the outcome logged in this assay for the compound shown: `c1ccc(-c2nc(N3CCOCC3)c3c4c(sc3n2)CCCCCC4)nc1`
active

Identify the outcome logged in this assay for the compound shown: `Cc1nn(-c2ccccc2)c2nc3nc4c(c(N)c3c(-c3ccc(Cl)cc3)c12)CCC4`
inactive

Identify the outcome logged in this assay for the compound shown: `COc1ccc(C2OCC(C)(C)CO2)cc1OC`
inactive

Identify the outcome logged in this assay for the compound shown: `O=C1c2[nH]cc(CN[C@@H]3CCCN3)c2C(=O)c2c1c(O)c1ccccc1c2O`
active

Identify the outcome logged in this assay for the compound shown: `Cc1ccccc1-n1nnc(C(=O)Nc2ccc(-c3ccccc3)cn2)c1C`
inactive

Identify the outcome logged in this assay for the compound shown: `COc1ccc(Sc2ccc3[nH]c(=O)nc(N)c3c2)cc1`
inactive

Identify the outcome logged in this assay for the compound shown: `O=C(O)CCN1CCN(c2cccc(Cl)c2)CC1`
inactive

Identify the outcome logged in this assay for the compound shown: `CCCCNNC(=O)c1ccc(Br)cc1`
inactive

Identify the outcome logged in this assay for the compound shown: `Clc1cccc(Cl)c1Nc1ccc2nnc(-c3ccncc3)n2n1`
inactive

Identify the outcome logged in this assay for the compound shown: `O=C(N/N=C(\CS(=O)(=O)c1ccccc1)c1cc2cc(Br)ccc2oc1=O)c1ccccc1`
inactive

Identify the outcome logged in this assay for the compound shown: `O=c1onc(-c2ccccc2)c2ccccc12`
inactive

###

# Tested on: HCT-15 colon
# METHOD_NOTES: NCI-60 one-dose screen, 48 h (100 = growth as untreated, 0 = no growth, -100 = all killed)
# REPORTED_CONDITIONS: 10 µM unless noted
This is part of a sample that, as a whole, favours compounds with a hit. Of some 83,000 tested, about 20% had one in any assay.
Recorded growth, one value per entry.
# number only, unit % dropped from output

Study these solved cases before continuing.
COMPOUND | REPORTED_MEASUREMENT
FC(F)(F)c1ccc2c(c1)n1cnnc1c1nncn21 | 111
Nc1ccccc1-c1n[nH]c(=O)[nH]c1=O | 104
COc1cc(CNCCCN2C(=O)c3ccc4c5c(ccc(c35)C2=O)C(=O)N(CCCNCc2cc(OC)c(OC)c(OC)c2)C4=O)cc(OC)c1OC | -29.4
O=C(NC1CC1)c1cc2n(n1)CC(c1ccccc1)N2 (stereo unspecified) | 95.3
NC(=O)c1cccc(-n2ccc3cc(NC(=O)Nc4ccc(Cl)c(Cl)c4)ccc32)n1 | 59.7
O=C(Nc1nc2ccccc2[nH]1)C(=O)Nc1nc2ccccc2[nH]1 | 86.2
O=c1oc2ccccc2cc1-c1csc(N/N=C/c2cc3ccccc3nc2Cl)n1 | 101
CC(=O)Nc1ccc(Sc2ccc([N+](=O)[O-])o2)cc1 | 2.17
O=C(NCc1cccnc1)c1ccc([N+](=O)[O-])o1 | -68.1
C[C@@H](Oc1cc(-c2cnn(C3CC4(CCNCC4)C3)c2)cnc1N)c1c(F)ccc(Cl)c1Cl | 1.76

Given the entry `O=C(CCc1nnc2sc(-c3ccccc3)nn12)c1nc2ccccc2[nH]1` , report its measured growth.
98.5

Given the entry `NC(=O)c1cc(Cl)ccc1NC(=O)COc1ccccc1` , report its measured growth.
33.3

Given the entry O=C1C2CC3C(CC2C(=O)[N]1[Sn]([c]1ccccc1)([c]1ccccc1)[c]1ccccc1)C1(Cl)C(Cl)=C(Cl)C3(Cl)C1(Cl)Cl (stereo unspecified) , report its measured growth.
-88

Given the entry `CCCN(CCC)c1ccc(/C=C/c2ccc3cc(OCC)ccc3n2)cc1` , report its measured growth.
78.6

Given the entry CC(=O)N(CC(O)CO)c1c(I)c(C(=O)NCCO)c(I)c(C(=O)NCC(O)CO)c1I (stereo unspecified) , report its measured growth.
96.4

Given the entry `COc1ccc(/C=C2\Oc3cc(C)c(Cl)cc3C2=O)cc1OC` , report its measured growth.
96.5

Given the entry `COc1ccc(NC(=O)COc2ccccc2)c(C(N)=O)c1` , report its measured growth.
28.8

Given the entry `NC(=S)N/N=C1\c2ccccc2-c2c(F)c(F)c(F)c(F)c21` , report its measured growth.
62.8
